# STUDY_TARGET: Leukotriene C4 synthase (Homo sapiens, UniProt Q16873)
# Sequence (Q16873 whole entry): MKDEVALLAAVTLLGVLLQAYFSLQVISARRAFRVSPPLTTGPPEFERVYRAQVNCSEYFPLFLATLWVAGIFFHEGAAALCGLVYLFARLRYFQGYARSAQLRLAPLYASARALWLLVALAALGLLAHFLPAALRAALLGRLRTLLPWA
# ASSAY_OVERVIEW: Recombinant human LTC4 synthase is expressed in […] and the purified enzyme is dissolved in 25 mM tris-buffer pH 7.8 supplemented with 0.1 mM glutathione (GSH) and stored at −80 °C. […] The buffer is used as background. Runs are performed in duplicates. […] The reaction is stopped after 1 min by addition of double the reaction volume of a stop solution (MeOH:H2O:acetic acid 70:30:1).
Reported pIC50 values for a set of compounds
Quick note: pIC50 values are minus log10 of concentrations in mol/L.

State, in one line, measured pIC50 of COc1cc(N(Cc2cccc(C)c2)CC2CC2)cnc1C(=O)C1CC1C(=O)O (stereo not given)
6.77

State, in one line, measured pIC50 of COc1cc(N(Cc2cccc3ccccc23)CC2CC2)cnc1C(=O)C1CC1C(=O)O (stereo not given)
7.18

State, in one line, measured pIC50 of COc1cc(N(Cc2c(Cl)cccc2Cl)CC2CC2)cnc1C(=O)C1CC1C(=O)O (stereo not given)
6.10

State, in one line, measured pIC50 of COc1cc(N(Cc2ccc(C(F)(F)F)cc2F)CC2CC2)cnc1C(=O)C1CC1C(=O)O (stereo not given)
7.28

State, in one line, measured pIC50 of COc1cc(N(CC2CC2)c2cccc3c(C)ccnc23)cnc1C(=O)C1CC1C(=O)O (stereo not given)
6.35

State, in one line, measured pIC50 of COc1cc(N(Cc2ccc(-c3ccccc3)cc2)CC2CC2)cnc1C(=O)C1CC1C(=O)O (stereo not given)
5.66

State, in one line, measured pIC50 of COc1cc(N(CC2CC2)c2ccc(C)c3ccccc23)ncc1C(=O)C1CC1C(=O)O (stereo not given)
7.25
